test: Butyrate concentration in rabbit serum after oral NaB; assay type: in vivo; conditions: oral dosing of 15.6 mg to each rabbit, read-out: maximum concentration of butyrate in the blood (Cmax)
assay-endpoint: Cmax

### Prompt What does the data say about its Cmax? Entry: CCCC(=O)O [NaB, sodium butyrate]
### Response ~8 µM
